- Tested on: K-562 leukemia
- METHOD_NOTES: NCI-60 one-dose screen, 48 h
- CONDITION: 10 µM unless noted
This is part of a sample that, as a whole, favours compounds with a hit. Of some 83,000 tested, about 20% had one in any assay. Active and inactive are the calls of the source. Rule for the calls: active = growth percent below 10; inactive = the rest.
Outcome codes: t for active, f for inactive

[[record]]
compound = "Brc1ccc(Oc2ccc(Nc3ncnc4onc(-c5ccccc5)c34)cc2)cc1"
test_system = "K-562 leukemia"
class_label = "f"

[[record]]
compound = "COc1cc2nc(-c3cccc4cccnc34)nc(NC3CCN(Cc4ccccc4)CC3)c2cc1OC"
test_system = "K-562 leukemia"
class_label = "t"

[[record]]
compound = "O=C(CN1C(=O)/C(=C\\c2ccc(Cl)cc2)SC1=S)Nc1ncc(Cc2ccc(Cl)cc2)s1"
test_system = "K-562 leukemia"
class_label = "f"

[[record]]
compound = "COc1cc(C(C)n2cc(-c3ccccc3)nn2)ccc1OC1CCCCC1 (stereo not given)"
test_system = "K-562 leukemia"
class_label = "f"

[[record]]
compound = "C=C(C)CCC(C)N1CCC(N2CCC(C(=O)NCCc3ccccc3)CC2)CC1 (stereo not given)"
test_system = "K-562 leukemia"
class_label = "f"

[[record]]
compound = "COc1ccc(N)c(-c2cc3c(c4c2[nH]c2ccc(OC)cc24)CCCC3)c1"
test_system = "K-562 leukemia"
class_label = "f"

[[record]]
compound = "Cc1sc2ncnc(Sc3nc4ccccc4[nH]3)c2c1C"
test_system = "K-562 leukemia"
class_label = "t"

[[record]]
compound = "CC1=C(CC(=O)c2cccc([N+](=O)[O-])c2)C(=O)c2ccccc2C1=O"
test_system = "K-562 leukemia"
class_label = "t"

[[record]]
compound = "O=C(CCc1nnc2sc(COc3ccccc3)nn12)c1nc2ncccc2[nH]1"
test_system = "K-562 leukemia"
class_label = "f"

[[record]]
compound = "O=C1NC(=O)C(=Cc2cn(Cc3cn(Cc4ccc(Cl)cc4Cl)nn3)c3ccccc23)C(=O)N1"
test_system = "K-562 leukemia"
class_label = "f"


###

- Tested on: HOP-62 NSCLC
- METHOD_NOTES: NCI-60 one-dose screen, 48 h (100 = growth as untreated, 0 = no growth, -100 = all killed)
- CONDITION: 10 µM unless noted
Compounds without any hit were thinned out: in the full panel of roughly 83,000, 20% have a hit.
ATTRIBUTE_MEASURED: growth (%)

[[record]]
compound = "CC(C)(C)c1ccc(C2CC(=O)C3=C(C2)Nc2ccccc2N(C(=O)c2ccccc2Cl)C3c2ccc(F)cc2)cc1 (stereo not drawn)"
measure_unit = "%"
observed_value = 25.3

[[record]]
compound = "O=C1/C(=C/c2ccc(O)cc2)COc2ccc(O)c(O)c21"
measure_unit = "%"
observed_value = 51.5

[[record]]
compound = "c1ccc2cc3c(Nc4ccc(N5CCOCC5)cc4)ccnc3cc2c1"
measure_unit = "%"
observed_value = 100

[[record]]
compound = "CCn1c(SCC(=O)Nc2cc(C(F)(F)F)ccc2Cl)nc2ccccc2c1=O"
measure_unit = "%"
observed_value = 64.2

[[record]]
compound = "O=C1c2ccccc2C(=O)c2c1ccc1[nH]c(CCl)nc21"
measure_unit = "%"
observed_value = 25.3

[[record]]
compound = "O=C(/C=C/c1ccc(C(F)(F)F)cc1)c1ccc(Nc2nc(NCCO)nc(Nc3ccc(Cl)cc3)n2)cc1"
measure_unit = "%"
observed_value = 53.2

[[record]]
compound = "O=Cc1cc2ccccc2nc1Nc1nccs1"
measure_unit = "%"
observed_value = 62.2

[[record]]
compound = "O=C(Nc1ccc(I)cc1F)c1cc(F)ccc1O"
measure_unit = "%"
observed_value = -16.6

[[record]]
compound = "NC(CCc1nc2ccccc2c(=O)[nH]1)C(=O)O (stereo not drawn)"
measure_unit = "%"
observed_value = 103

[[record]]
compound = "O=C(O)CCC(=O)c1ccc(C2CCCCCC2)cc1"
measure_unit = "%"
observed_value = 98.8

[[record]]
compound = "COc1ccc(N)c(-c2cc3c(c4c2[nH]c2ccc(OC)cc24)CCCC3)c1"
measure_unit = "%"
observed_value = 70.4

[[record]]
compound = "O=C(Nc1ccc(Cl)cc1F)c1cc(F)ccc1O"
measure_unit = "%"
observed_value = -0.133

[[record]]
compound = "CC1(C)CC2(C)OC2C2(C1)N=NC(=Nc1ccccc1)O2 (stereo not drawn)"
measure_unit = "%"
observed_value = 60.9

[[record]]
compound = "S=C1CCCC(=S)N1"
measure_unit = "%"
observed_value = 88

[[record]]
compound = "O=c1c2cc(F)ccc2sc2c(Nc3ccncc3)nc3ccccc3c12"
measure_unit = "%"
observed_value = 34.7

[[record]]
compound = "O=C(Nc1ccc(I)cc1F)c1cc(Cl)ccc1O"
measure_unit = "%"
observed_value = 2.14

[[record]]
compound = "O=C1CCC(N2C(=O)c3cccc(NCCCCCCOc4ccc(Nc5nccc(Nc6ccccc6)n5)cc4)c3C2=O)C(=O)N1 (stereo not drawn)"
measure_unit = "%"
observed_value = 84.2

[[record]]
compound = "COc1nc2c(c(=O)n1C)N=C1c3ccccc3C(=O)C1C(c1ccccc1)N2 (stereo not drawn)"
measure_unit = "%"
observed_value = 86.9

[[record]]
compound = "c1ccc(CNc2nc(Nc3ccccc3)nc3ccccc23)cc1"
measure_unit = "%"
observed_value = -9

[[record]]
compound = "NNC(=O)CNC(=O)Nc1n[nH]c(=S)s1"
measure_unit = "%"
observed_value = 100

[[record]]
compound = "COC(=O)/C(=C\\c1c(C)[nH]c2ccccc12)S(=O)(=O)c1ccccc1"
measure_unit = "%"
observed_value = 29.8

[[record]]
compound = "CCCCC1CCc2cccc3c(SCC(=O)N(C)c4ccc(Cl)cc4)cc[n+]1c23 (stereo not drawn)"
measure_unit = "%"
observed_value = 107

[[record]]
compound = "COc1ccc(Cn2c(Br)c3c(c2-c2cc(OC)c(OC)c(OC)c2)CCc2sc(NC(C)=O)nc2-3)cc1"
measure_unit = "%"
observed_value = 60.3


###

- Test system: CCRF-CEM leukemia
- METHOD_NOTES: NCI-60 one-dose screen, 48 h (100 = growth as untreated, 0 = no growth, -100 = all killed)
- CONDITION: 10 µM unless noted
- Method: Growth inhibition of the CCRF-CEM human tumor cell line is measured as a screen for anti-cancer activity. Cells are grown in 96 well plates and exposed to the test compound for 48 hours. Compounds are tested at a single concentration, which is 10^-5 M for most compounds. The reported endpoint is percent growth (GI% or GIPRCNT), where numbers from 0 - 100% represent growth inhibition, and numbers from -100% - 0 represent cell death. For example, a value of 40 represents 60% growth inhibition. […]
The panel holds about 83,000 compounds, 20% with a hit somewhere; the sample as a whole holds those more often.
Mark each entry fulfilled if its growth sits below 80%, and not fulfilled for all others.

[[record]]
compound = "O=C1c2cc(I)ccc2Oc2cc([N+](=O)[O-])ccc2N1c1ccc(Cl)cc1F"
test_system = "CCRF-CEM leukemia"
class_label = "fulfilled"

[[record]]
compound = "COc1ccc(-c2cn3c(C(=O)Nc4ccccc4Cl)c(-c4ccccc4)c4c3n2CCCC4)cc1"
test_system = "CCRF-CEM leukemia"
class_label = "fulfilled"

[[record]]
compound = "O=c1oc2ccc(Br)cc2c(=O)n1-c1ccc(Cl)cc1F"
test_system = "CCRF-CEM leukemia"
class_label = "fulfilled"

[[record]]
compound = "CSc1nc2c(c(=O)n1C)N=C1c3ccccc3C(=O)C1C(c1ccccc1)N2 (stereo not given)"
test_system = "CCRF-CEM leukemia"
class_label = "not fulfilled"

[[record]]
compound = "c1ccc(-c2ccc(-c3nc4ccccc4[nH]3)cc2)cc1"
test_system = "CCRF-CEM leukemia"
class_label = "fulfilled"

[[record]]
compound = "CCN1C(=O)N(CC)C2C1NN=c1s/c(=C3\\C(=O)N(CC(C)(C)C)c4ccccc43)c(=O)n12 (stereo not given)"
test_system = "CCRF-CEM leukemia"
class_label = "fulfilled"

[[record]]
compound = "O=C(NCCCN1CCC(N2CCCCC2)CC1)C1=Cc2cc(Br)ccc2OC1"
test_system = "CCRF-CEM leukemia"
class_label = "fulfilled"

[[record]]
compound = "Cc1nc2ccccc2c(/C=C/c2ccc(F)cc2)c1C(N)=O"
test_system = "CCRF-CEM leukemia"
class_label = "not fulfilled"

[[record]]
compound = "Nc1nc2c(ncn2[C@@H]2O[C@H](CS)[C@@H](O)[C@H]2O)c(=O)[nH]1"
test_system = "CCRF-CEM leukemia"
class_label = "not fulfilled"

[[record]]
compound = "O=C(Nc1ccccc1O)c1ccc(Oc2cccc(C(=O)Nc3ccccc3O)c2)cc1"
test_system = "CCRF-CEM leukemia"
class_label = "fulfilled"

[[record]]
compound = "O=C(Nc1ccc(-c2nc3cc4ccccc4cc3[nH]2)cc1)c1cccc(Br)c1"
test_system = "CCRF-CEM leukemia"
class_label = "fulfilled"

[[record]]
compound = "CN1C(=O)N(C)C2C1NN=c1s/c(=C\\c3ccc([N+](=O)[O-])cc3)c(=O)n12 (stereo not given)"
test_system = "CCRF-CEM leukemia"
class_label = "fulfilled"

[[record]]
compound = "CN1CCN(c2nc(Nc3ccc(O)cc3)nc3ccccc23)CC1"
test_system = "CCRF-CEM leukemia"
class_label = "not fulfilled"

[[record]]
compound = "COc1cc(/C(C#N)=C/c2nc3c(N4CCOCC4)nc(Cl)nc3n2C)cc(OC)c1OC"
test_system = "CCRF-CEM leukemia"
class_label = "fulfilled"

[[record]]
compound = "Clc1ccc(-c2nnc(COc3ccc(C4=NNC(c5ccco5)C4)cc3)o2)cc1 (stereo not given)"
test_system = "CCRF-CEM leukemia"
class_label = "not fulfilled"

[[record]]
compound = "COc1ccc(CCN2C(=O)/C(=C/c3ccc(C4Oc5ccccc5C5CC(c6cccc(OC)c6)=NN54)cc3)SC2=S)cc1 (stereo not given)"
test_system = "CCRF-CEM leukemia"
class_label = "not fulfilled"

[[record]]
compound = "O=c1[nH]nnc2c1ncn2C1OC(CO)C(O)C1O (stereo not given)"
test_system = "CCRF-CEM leukemia"
class_label = "fulfilled"

[[record]]
compound = "O=c1c(-c2nc3ccccc3[nH]2)cc2ccccc2n1Cc1cn(Cc2ccc(N3CCOCC3)cc2)nn1"
test_system = "CCRF-CEM leukemia"
class_label = "not fulfilled"

[[record]]
compound = "Cc1ccc(NCCNCC(O)CO)c2c(=O)c3ccccc3sc12 (stereo not given)"
test_system = "CCRF-CEM leukemia"
class_label = "fulfilled"

